Where do these numbers come from? They come from patent US12551573B2.

- System: HBEGF locus
- Format: cell-based, human
- Assay conditions: high-throughput screen of dXR repression of the HBEGF gene; change in abundance of each domain in the library before and after diphtheria toxin selection
Quantity: Log2 (fold change)

DOMAIN_17317 (protein, listed as Otolemur garnettii) SQASVSFKDVNVEFTQDEWQQMGPAQRNLYRDVMLENYSNLVSVGYCIFKPKVIFRLEQGEEPWSSEEEFSSQRRPKNYRD    3.4551
DOMAIN_5188 (protein, listed as Aotus trivirgatus) MITAQGPVSFRDVTVGFTQEEWQHLDPAQRTLYRDVMIENYSHLVSVGYCIPKPEVILKLEKGEEPWISEEKFPSQSHLEL    2.1842
DOMAIN_6433 (protein, listed as Podarcis muralis) GSVSFDEVSVRFSNEEWALLDPGQRALYEEVMEEIREMMTSVGDVSEFLTEGEQSELSREGAEEQKEQRKQRVQVGTYRNE    3.0313
DOMAIN_6938 (protein, listed as Alligator mississippiensis) SKLPEAFEDVAVYFTRKEWELLEAGDKGLYQDQMLRNYQALVSLGLQGPAPDLICRMQLGEMELWVCDDEEAGESSLSEDF    2.6093
